Where do the numbers come from? From the Immune Epitope Database (IEDB).

molecular target: HLA-A*24:02; assay: IEDB peptide-MHC binding, cellular MHC/competitive/fluorescence; bounds were set here for any values at or beyond the usual limits of such assays; details: source organism: Human herpesvirus 5 strain AD169
OBSERVABLE: IC50 (µM)
// return numeric value only (unit: µM, not printed)

IC50 recorded for this sequence, VYYTSAFVF , is 35

###

target: HLA-B*39:01; assay: IEDB peptide-MHC binding, purified MHC/competitive/fluorescence; filed as Kd, often an IC50 or EC50 that approximates it; bounds were set here for any values at or beyond the usual limits of such assays; conditions: source organism: Zaire ebolavirus
OBSERVABLE: Kd

Answered examples (3):
[[record]]
seq_text = "MHYKLDEVL"
observable = "Kd"
recorded_value = "0.0041 µM"

[[record]]
seq_text = "SLTDRELLL"
observable = "Kd"
recorded_value = "≥ 20 µM"

[[record]]
seq_text = "APFARLLNL"
observable = "Kd"
recorded_value = "≥ 20 µM"


# context switch: different sequence, same Kd
Field Kd (HLA-B*39:01), entry YDRLASTVI : ≥ 20 µM

###

target: HLA-B*07:02; assay: IEDB peptide-MHC binding, purified MHC/direct/fluorescence; filed as Kd, often an IC50 or EC50 that approximates it; bounds were set here for any values at or beyond the usual limits of such assays; settings: source organism: Salmonella enterica subsp. enterica serovar Typhimurium
OBSERVABLE: Kd

Field Kd (HLA-B*07:02), entry NSDYMMWVG : ≥ 20 µM

###

sequences and their reported Kd
molecular target: HLA-B*15:01; test: IEDB peptide-MHC binding, purified MHC/direct/fluorescence; filed as Kd, often an IC50 or EC50 that approximates it; bounds were set here for any values at or beyond the usual limits of such assays; conditions: source organism: Zaire ebolavirus

[[record]]
seq_text = "YDRLASTVI"
recorded_value = "≥ 20 µM"


# context switch: different sequence, same Kd
Kd recorded for this sequence, GHMMVIFRL , is ≥ 20 µM

###

molecular target: HLA-A*69:01; assay: IEDB peptide-MHC binding, purified MHC/competitive/fluorescence; filed as Kd, often an IC50 or EC50 that approximates it; bounds were set here for any values at or beyond the usual limits of such assays; conditions: source organism: Salmonella enterica subsp. enterica serovar Typhi
pKd: −log10 of the molar value.
OBSERVABLE: pKd

pKd recorded for this sequence, EIIFYHPTF , is ≤ 4.70

###

molecular target: HLA-A*33:01; assay: IEDB peptide-MHC binding, purified MHC/competitive/radioactivity; filed as Kd, often an IC50 or EC50 that approximates it; bounds were set here for any values at or beyond the usual limits of such assays; conditions: source organism: Lymphocytic choriomeningitis virus (strain Armstrong)
OBSERVABLE: Kd (nM)
// return numeric value only (unit: nM, not printed)

Kd recorded for this sequence, SKFWYLEHAK , is 879

###

biological target: HLA-B*46:01; test: IEDB peptide-MHC binding, purified MHC/competitive/fluorescence; filed as Kd, often an IC50 or EC50 that approximates it; bounds were set here for any values at or beyond the usual limits of such assays; settings: source organism: Orthohantavirus sinnombreense
OBSERVABLE: Kd

Kd recorded for this sequence, LFPELECFF , is ≥ 20 µM

###

biological target: HLA-A*68:02; assay: IEDB peptide-MHC binding, purified MHC/competitive/radioactivity; filed as Kd, often an IC50 or EC50 that approximates it; bounds were set here for any values at or beyond the usual limits of such assays; settings: source organism: Lassa virus Josiah
pKd: −log10 of the molar value.
OBSERVABLE: pKd

pKd recorded for this sequence, RLLGTFTWT , is ≤ 5.30

###

molecular target: HLA-A*24:02; assay: IEDB peptide-MHC binding, purified MHC/competitive/radioactivity; filed as Kd, often an IC50 or EC50 that approximates it; bounds were set here for any values at or beyond the usual limits of such assays; conditions: source organism: Mammarenavirus mopeiaense
OBSERVABLE: Kd (µM)
// return numeric value only (unit: µM, not printed)

Kd recorded for this sequence, PYIASRTSIV , is 2.5

###

molecular target: HLA-A*02:01; test: IEDB peptide-MHC binding, purified MHC/competitive/fluorescence; filed as Kd, often an IC50 or EC50 that approximates it; bounds were set here for any values at or beyond the usual limits of such assays; settings: source organism: Vaccinia virus WR
OBSERVABLE: pKd
pKd here: minus log base 10 of the concentration, concentration in moles per litre.

Field pKd (HLA-A*02:01), entry VLPFDIKKL : 6.28

###

molecular target: HLA-B*48:01; assay: IEDB peptide-MHC binding, purified MHC/direct/fluorescence; filed as Kd, often an IC50 or EC50 that approximates it; bounds were set here for any values at or beyond the usual limits of such assays; conditions: source organism: Vibrio cholerae
pKd: −log10 of the molar value.
OBSERVABLE: pKd

pKd recorded for this sequence, TTILGLLPM , is ≤ 4.70

###

molecular target: HLA-B*58:01; test: IEDB peptide-MHC binding, purified MHC/direct/fluorescence; filed as Kd, often an IC50 or EC50 that approximates it; bounds were set here for any values at or beyond the usual limits of such assays; conditions: source organism: Escherichia coli
OBSERVABLE: Kd

Kd recorded for this sequence, SHDTIGPYY , is ≥ 20 µM

###

target: HLA-A*11:01; assay: IEDB peptide-MHC binding, purified MHC/competitive/radioactivity; filed as Kd, often an IC50 or EC50 that approximates it; bounds were set here for any values at or beyond the usual limits of such assays; conditions: source organism: Homo sapiens
OBSERVABLE: pKd
pKd here: minus log base 10 of the concentration, concentration in moles per litre.

Field pKd (HLA-A*11:01), entry VVGAGGVGK : 7.04

###

target: HLA-C*06:02; experiment: IEDB peptide-MHC binding, purified MHC/direct/fluorescence; filed as Kd, often an IC50 or EC50 that approximates it; bounds were set here for any values at or beyond the usual limits of such assays; conditions: source organism: SARS-CoV1
OBSERVABLE: pKd
pKd here: minus log base 10 of the concentration, concentration in moles per litre.

Field pKd (HLA-C*06:02), entry SYCNGVREL : 6.88

###

target: HLA-B*18:01; assay: IEDB peptide-MHC binding, purified MHC/competitive/fluorescence; filed as Kd, often an IC50 or EC50 that approximates it; bounds were set here for any values at or beyond the usual limits of such assays; details: source organism: Mus musculus
pKd: −log10 of the molar value.
OBSERVABLE: pKd

pKd recorded for this sequence, LVDENQSWY , is ≤ 4.70

###

target: HLA-A*11:01; experiment: IEDB peptide-MHC binding, purified MHC/competitive/radioactivity; filed as Kd, often an IC50 or EC50 that approximates it; bounds were set here for any values at or beyond the usual limits of such assays; details: source organism: Dengue virus 2 Peru/IQT2913/1996
OBSERVABLE: pKd
pKd here: minus log base 10 of the concentration, concentration in moles per litre.

pKd recorded for this sequence, ALNDTWKIEK , is 6.40

###

target: HLA-A*24:02; test: IEDB peptide-MHC binding, purified MHC/competitive/fluorescence; filed as Kd, often an IC50 or EC50 that approximates it; bounds were set here for any values at or beyond the usual limits of such assays; conditions: source organism: Acinetobacter baumannii
OBSERVABLE: Kd

Kd recorded for this sequence, SIYAGNTPK , is ≥ 20 µM

###

biological target: HLA-A*02:11; test: IEDB peptide-MHC binding, purified MHC/direct/fluorescence; filed as Kd, often an IC50 or EC50 that approximates it; bounds were set here for any values at or beyond the usual limits of such assays; conditions: source organism: Influenza A virus H3N2
OBSERVABLE: Kd

Kd recorded for this sequence, FLKDVMESM , is ≤ 1 nM

###

molecular target: HLA-B*27:03; assay: IEDB peptide-MHC binding, purified MHC/competitive/fluorescence; filed as Kd, often an IC50 or EC50 that approximates it; bounds were set here for any values at or beyond the usual limits of such assays; conditions: source organism: Choclo virus
OBSERVABLE: Kd

Kd recorded for this sequence, KACDLAMCY , is ≥ 20 µM

###

target: HLA-A*02:02; assay: IEDB peptide-MHC binding, purified MHC/competitive/radioactivity; filed as Kd, often an IC50 or EC50 that approximates it; bounds were set here for any values at or beyond the usual limits of such assays; conditions: source organism: SARS coronavirus Tor2
sequences and their reported pKd
pKd here: minus log base 10 of the concentration, concentration in moles per litre.

[[record]]
seq_text = "YLLGLSAIM"
system_name = "HLA-A*02:02"
observable = "pKd"
recorded_value = 8.77


# context switch: different sequence, same pKd
pKd recorded for this sequence, FLFLAWIML , is 8.74

###

sequences and their reported Kd
target: HLA-A*01:01; assay: IEDB peptide-MHC binding, purified MHC/competitive/radioactivity; filed as Kd, often an IC50 or EC50 that approximates it; bounds were set here for any values at or beyond the usual limits of such assays; conditions: source organism: SARS coronavirus Tor2
// return numeric value only (unit: µM, not printed)

Answered examples (5):
[[record]]
seq_text = "VSIINNAVY"
recorded_value = 0.883

[[record]]
seq_text = "LDESFLGRY"
recorded_value = 2.61

[[record]]
seq_text = "LFLAFVVFL"
recorded_value = 0.812

[[record]]
seq_text = "VFSAVGNICY"
recorded_value = 0.0605

[[record]]
seq_text = "TSSMRGVYY"
recorded_value = 0.0693


# context switch: different sequence, same Kd
Kd recorded for this sequence, YLALYNKYKY , is 0.244
